experiment: Plasma concentration was determined after 1 hr at a dose 30 mg/kg administered orally to rat-13; assay type: ADME, organism-based; set-up: dose 30 mg/kg, route oral; details: po
Property label: concentration at 1 h (ng/mL)
# number only, unit ng/mL dropped from output

Notebook: `COc1cc2ncnc(N3CCN(/C(S)=N\Cc4cccnc4)CC3)c2cc1OC.Cl.Cl` , concentration at 1 h read as 2600

----------
experiment: Plasma concentration was determined after 1 hr at a dose 30 mg/kg administered orally to rat-6; type: ADME, organism-based; design: dose 30 mg/kg, route oral; conditions: po
Property label: concentration at 1 h

Notebook: `COc1cc2ncnc(N3CCN(C(=S)NCc4ccc(Cl)cc4)CC3)c2cc1OC` , concentration at 1 h read as < 100 ng/mL

----------
target: Platelet-derived growth factor receptor (Homo sapiens, UniProt P09619+P16234); test: Concentration required for 50% inhibition against autophosphorylation of Platelet-derived growth factor receptor beta in intact cells using a two site ELISA
Listing of entries alongside the reported pIC50.
Remember the convention: pIC50 equals -log10 of concentration in molar.

Example entries and their recorded answers appear below.
COc1cc2ncnc(N3CCN(C(=O)NCc4ccc(C)cc4)CC3)c2cc1OC    5.53
COc1cc2ncnc(N3CCN(C(=O)NCc4ccc(F)cc4)CC3)c2cc1OC    5.02
COc1cc2ncnc(N3CCN(C(=S)NCc4cccc(Cl)c4)CC3)c2cc1OC    6.64
COc1cc2ncnc(N3CCN(C(=O)NCc4ccc(Cl)cc4)CC3)c2cc1OC    5.90

Next, consider the following compound.
Notebook: `COc1cc2ncnc(N3CCN(C(=S)NCc4ccc(C)cc4)CC3)c2cc1OC` , pIC50 read as 7.52

----------
test: Plasma concentration was determined after 1 hr at a dose 30 mg/kg administered orally to rat-14; type: ADME, organism-based; set-up: dose 30 mg/kg, route oral; conditions: po
Property label: concentration at 1 h (ng/mL)
# number only, unit ng/mL dropped from output

Notebook: `COc1cc2ncnc(N3CCN(/C(S)=N\Cc4cccnc4)CC3)c2cc1OC.Cl.Cl` , concentration at 1 h read as 2600

----------
assay: pharmacokinetic parameter was evaluated after oral administration of 30 mg/kg to rat; assay type: ADME, organism-based; design: dose 30 mg/kg, route oral; details: in vivo
Property label: Cmax (ng/mL)
# number only, unit ng/mL dropped from output

COc1cc2ncnc(N3CCN(C(=O)Nc4ccsc4)CC3)c2cc1OC    15900
COc1cc2ncnc(N3CCN(/C(S)=N\Cc4ccc5c(c4)OCO5)CC3)c2cc1OC    14500
COc1cc2ncnc(N3CCN(/C(S)=N\Cc4cccnc4)CC3)c2cc1OC.Cl.Cl    6980

Next, consider the following compound.
Notebook: `COc1cc2ncnc(N3CCN(C(=S)NCc4ccco4)CC3)c2cc1OC` , Cmax read as 7200

----------
Listing of entries alongside the reported logD.
experiment: Lipophilicity was reported; type: physicochemical; settings: octanol/water
Please give only the number in your answer, with no unit.

COc1cc2ncnc(N3CCN(C(=S)NCc4ccco4)CC3)c2cc1OC    2.75
COc1cc2ncnc(N3CCN(C(=O)Nc4ccsc4)CC3)c2cc1OC    2.72
COc1cc2ncnc(N3CCN(C(=O)Nc4ccc([N+](=O)[O-])cc4)CC3)c2cc1OC    3.22

Next, consider the following compound.
Notebook: `COc1cc2ncnc(N3CCN(/C(S)=N\Cc4cccnc4)CC3)c2cc1OC.Cl.Cl` , logD read as 2.49
